Measured pIC50 by item
ASSAY_SYSTEM: PRMT5 (Homo sapiens)
Construct: purchased Viva (custom protein)
Sequence (O14744 whole entry): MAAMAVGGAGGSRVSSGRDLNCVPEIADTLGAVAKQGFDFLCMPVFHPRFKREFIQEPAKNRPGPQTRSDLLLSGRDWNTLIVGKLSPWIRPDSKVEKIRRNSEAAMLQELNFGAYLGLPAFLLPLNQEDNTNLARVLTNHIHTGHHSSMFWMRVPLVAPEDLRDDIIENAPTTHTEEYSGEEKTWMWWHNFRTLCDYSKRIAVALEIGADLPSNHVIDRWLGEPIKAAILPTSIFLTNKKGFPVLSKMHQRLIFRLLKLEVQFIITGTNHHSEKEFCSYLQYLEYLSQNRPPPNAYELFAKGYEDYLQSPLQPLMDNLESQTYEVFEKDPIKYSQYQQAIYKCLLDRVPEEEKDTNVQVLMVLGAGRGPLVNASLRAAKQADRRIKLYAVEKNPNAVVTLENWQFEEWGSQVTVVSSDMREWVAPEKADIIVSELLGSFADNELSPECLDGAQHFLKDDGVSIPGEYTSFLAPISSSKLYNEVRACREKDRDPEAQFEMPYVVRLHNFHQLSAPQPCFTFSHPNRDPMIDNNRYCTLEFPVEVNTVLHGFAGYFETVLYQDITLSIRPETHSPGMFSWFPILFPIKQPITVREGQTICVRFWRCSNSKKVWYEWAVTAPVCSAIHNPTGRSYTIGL
Sequence (Q9BQA1 whole entry partner): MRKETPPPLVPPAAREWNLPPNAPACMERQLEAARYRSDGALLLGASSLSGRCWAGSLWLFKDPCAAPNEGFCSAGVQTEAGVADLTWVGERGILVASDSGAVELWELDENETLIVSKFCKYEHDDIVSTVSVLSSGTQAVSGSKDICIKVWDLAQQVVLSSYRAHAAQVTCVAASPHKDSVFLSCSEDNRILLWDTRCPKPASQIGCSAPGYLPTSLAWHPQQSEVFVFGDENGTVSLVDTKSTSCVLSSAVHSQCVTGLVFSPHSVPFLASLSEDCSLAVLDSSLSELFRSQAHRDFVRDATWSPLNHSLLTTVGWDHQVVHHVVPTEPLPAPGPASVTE
ASSAY_NOTES: PRMT5 biochemical IC50 assay with no cofactor
TEST_SETTINGS: PRMT5, no cofactor; read-out: No Cofactor/rel IC50
pIC50: −log10 of the molar value.

{"COMPOUND": "CC(=O)Nc1ccc([C@@H]2CC[C@@H](C)CN2C(=O)C(=O)Nc2cnc(N)c(C)c2)cn1 (single isomer, unassigned)", "pIC50": "< 6.30"}
{"COMPOUND": "COc1ncc(NC(=O)C(=O)N2C[C@H](C)CC[C@H]2c2ccc3c(c2)CC(=O)N3)cc1C(N)=O (single isomer, unassigned)", "pIC50": "< 6.30"}
{"COMPOUND": "CCc1cc(NC(=O)C(=O)N2C[C@@H](C)CC[C@@H]2c2ccccc2)cnc1N (single isomer, unassigned)", "pIC50": "< 6.30"}
{"COMPOUND": "COc1cc([C@@H]2CC[C@@H](C)CN2C(=O)C(=O)Nc2cnc(N)c(C)c2)ccn1 (single isomer, unassigned)", "pIC50": "> 7.30"}
{"COMPOUND": "C[C@@H]1CC[C@@H](c2ccc3c(c2)CCCO3)N(C(=O)C(=O)Nc2cncc(C(N)=O)c2)C1 (racemic)", "pIC50": "6.30 to 7.30"}
{"COMPOUND": "C[C@H]1CC[C@H](c2ccc3sc(C4CCN(C)CC4)nc3c2)N(C(=O)C(=O)Nc2cnc(N)c(C(F)(F)F)c2)C1", "pIC50": "> 7.30"}

Item under review: `COc1cc(NC(=O)C(=O)N2C[C@@H](C)CC[C@@H]2c2ccc3sc(C4CCN(C)CC4)nc3c2)cnc1N` . Reported pIC50?
> 7.30

Item under review: `Cc1cc(NC(=O)C(=O)N2C[C@@H](C)CC[C@@H]2c2ccc3sc(C4CCN(C)CC4)nc3c2)cnc1C` . Reported pIC50?
> 7.30

Item under review: Cc1cc(NC(=O)C(=O)N2C[C@@H](C)CC[C@@H]2c2ccc(NS(C)(=O)=O)cc2)cnc1C (single isomer, unassigned) . Reported pIC50?
> 7.30

Item under review: C[C@@H]1CN(C(=O)C(=O)Nc2cncc(C(N)=O)c2)[C@@H](c2ccc(F)c(F)c2)CC1(F)F (single isomer, unassigned) . Reported pIC50?
< 6.30

Item under review: Cc1cc(NC(=O)C(=O)N2C[C@H](C)CC[C@H]2c2cnn(-c3ccn[nH]3)c2)cnc1N (racemic) . Reported pIC50?
6.30 to 7.30

Item under review: COc1ncc(NC(=O)C(=O)N2C[C@H](C)CC[C@H]2c2ccc(F)cc2)cc1C(N)=O (single isomer, unassigned) . Reported pIC50?
6.30 to 7.30

* * *

ASSAY_SYSTEM: PRMT5 (Homo sapiens)
Construct: purchased Viva (custom protein)
ASSAY_NOTES: PRMT5 biochemical IC50 assay with SAM as cofactor
TEST_SETTINGS: PRMT5, SAM as cofactor; read-out: SAM IC50
pIC50: −log10 of the molar value.
READOUT_KIND: pIC50

{"MOLECULE": "Cc1cc(NC(=O)C(=O)N2[C@@H](C)CCC[C@H]2c2ccccc2)cnc1N (single isomer, unassigned) [Compound 417]", "pIC50": "6.30 to 7.30"}
{"MOLECULE": "COCc1nc2cc([C@H]3CC[C@H](C)CN3C(=O)C(=O)Nc3cnc(N)c(C)c3)ccc2s1 (single isomer, unassigned) [Compound 1211]", "pIC50": "6.30 to 7.30"}
{"MOLECULE": "Cc1cc(NC(=O)C(=O)N2C[C@@H](C)CC[C@@H]2c2cccc(C3CCN(C)CC3)c2)cnc1N (single isomer, unassigned) [Compound 1253]", "pIC50": "> 7.30"}
{"MOLECULE": "Cc1cc(NC(=O)C(=O)N2C[C@H](C)[C@H](CC(C)C)C[C@H]2c2ccc3scnc3c2)cnc1N (single isomer, unassigned) [Compound 1190]", "pIC50": "6.30 to 7.30"}
{"MOLECULE": "CCc1cc(NC(=O)C(=O)N2C[C@@H](C)CC[C@@H]2c2ccc3sc(C4(CN(C)C)CC4)nc3c2)cnc1N [Compound 1347]", "pIC50": "6.30 to 7.30"}

Item under review: Cc1cc(NC(=O)C(=O)N2C[C@H](C)C(F)(F)C[C@H]2c2ccc(F)cc2)cnc1N (single isomer, unassigned) [Compound 777] . Reported pIC50?
< 6.30
